B1: VDR (parent)
chain: VTLELSQLSMLPHLADLVSYSIQK

Variants of: B1
PROTOCOL SUMMARY: protein stability index of a GFP-peptide fusion (GPS, HEK-293T) (PSI 1-6); higher = more stable;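 note: lentivirally expressed fusions sorted by FACS into six bins by GFP to DsRed ratio, PSI derived from sequencing read proportions per bin multiplied by bin number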
MEASUREMENT CONDITIONS: c terminus: a fixed tail appended
Assign class by protein stability index: not lower than 3 means Condition met; lower than 3 means Condition not met.

MUTATIONS: Q7L
GROUP LABEL: Condition met

Kindly consider the entry below.
I'd appreciate it if you could say whether `Q7P` has protein stability index at least equal to 3.
Condition not met
